Parameter IC50: see the listing below.
target: human (hACC2) (Homo sapiens); experiment: In vitro ACC inhibition assay (ADP-Glo), hACC2; assay type: biochemical; details: Table 2b, additional results, 5 nM ACC2, 20 μM ATP, 20 μM acetyl-CoA
Sequence (O00763 whole entry): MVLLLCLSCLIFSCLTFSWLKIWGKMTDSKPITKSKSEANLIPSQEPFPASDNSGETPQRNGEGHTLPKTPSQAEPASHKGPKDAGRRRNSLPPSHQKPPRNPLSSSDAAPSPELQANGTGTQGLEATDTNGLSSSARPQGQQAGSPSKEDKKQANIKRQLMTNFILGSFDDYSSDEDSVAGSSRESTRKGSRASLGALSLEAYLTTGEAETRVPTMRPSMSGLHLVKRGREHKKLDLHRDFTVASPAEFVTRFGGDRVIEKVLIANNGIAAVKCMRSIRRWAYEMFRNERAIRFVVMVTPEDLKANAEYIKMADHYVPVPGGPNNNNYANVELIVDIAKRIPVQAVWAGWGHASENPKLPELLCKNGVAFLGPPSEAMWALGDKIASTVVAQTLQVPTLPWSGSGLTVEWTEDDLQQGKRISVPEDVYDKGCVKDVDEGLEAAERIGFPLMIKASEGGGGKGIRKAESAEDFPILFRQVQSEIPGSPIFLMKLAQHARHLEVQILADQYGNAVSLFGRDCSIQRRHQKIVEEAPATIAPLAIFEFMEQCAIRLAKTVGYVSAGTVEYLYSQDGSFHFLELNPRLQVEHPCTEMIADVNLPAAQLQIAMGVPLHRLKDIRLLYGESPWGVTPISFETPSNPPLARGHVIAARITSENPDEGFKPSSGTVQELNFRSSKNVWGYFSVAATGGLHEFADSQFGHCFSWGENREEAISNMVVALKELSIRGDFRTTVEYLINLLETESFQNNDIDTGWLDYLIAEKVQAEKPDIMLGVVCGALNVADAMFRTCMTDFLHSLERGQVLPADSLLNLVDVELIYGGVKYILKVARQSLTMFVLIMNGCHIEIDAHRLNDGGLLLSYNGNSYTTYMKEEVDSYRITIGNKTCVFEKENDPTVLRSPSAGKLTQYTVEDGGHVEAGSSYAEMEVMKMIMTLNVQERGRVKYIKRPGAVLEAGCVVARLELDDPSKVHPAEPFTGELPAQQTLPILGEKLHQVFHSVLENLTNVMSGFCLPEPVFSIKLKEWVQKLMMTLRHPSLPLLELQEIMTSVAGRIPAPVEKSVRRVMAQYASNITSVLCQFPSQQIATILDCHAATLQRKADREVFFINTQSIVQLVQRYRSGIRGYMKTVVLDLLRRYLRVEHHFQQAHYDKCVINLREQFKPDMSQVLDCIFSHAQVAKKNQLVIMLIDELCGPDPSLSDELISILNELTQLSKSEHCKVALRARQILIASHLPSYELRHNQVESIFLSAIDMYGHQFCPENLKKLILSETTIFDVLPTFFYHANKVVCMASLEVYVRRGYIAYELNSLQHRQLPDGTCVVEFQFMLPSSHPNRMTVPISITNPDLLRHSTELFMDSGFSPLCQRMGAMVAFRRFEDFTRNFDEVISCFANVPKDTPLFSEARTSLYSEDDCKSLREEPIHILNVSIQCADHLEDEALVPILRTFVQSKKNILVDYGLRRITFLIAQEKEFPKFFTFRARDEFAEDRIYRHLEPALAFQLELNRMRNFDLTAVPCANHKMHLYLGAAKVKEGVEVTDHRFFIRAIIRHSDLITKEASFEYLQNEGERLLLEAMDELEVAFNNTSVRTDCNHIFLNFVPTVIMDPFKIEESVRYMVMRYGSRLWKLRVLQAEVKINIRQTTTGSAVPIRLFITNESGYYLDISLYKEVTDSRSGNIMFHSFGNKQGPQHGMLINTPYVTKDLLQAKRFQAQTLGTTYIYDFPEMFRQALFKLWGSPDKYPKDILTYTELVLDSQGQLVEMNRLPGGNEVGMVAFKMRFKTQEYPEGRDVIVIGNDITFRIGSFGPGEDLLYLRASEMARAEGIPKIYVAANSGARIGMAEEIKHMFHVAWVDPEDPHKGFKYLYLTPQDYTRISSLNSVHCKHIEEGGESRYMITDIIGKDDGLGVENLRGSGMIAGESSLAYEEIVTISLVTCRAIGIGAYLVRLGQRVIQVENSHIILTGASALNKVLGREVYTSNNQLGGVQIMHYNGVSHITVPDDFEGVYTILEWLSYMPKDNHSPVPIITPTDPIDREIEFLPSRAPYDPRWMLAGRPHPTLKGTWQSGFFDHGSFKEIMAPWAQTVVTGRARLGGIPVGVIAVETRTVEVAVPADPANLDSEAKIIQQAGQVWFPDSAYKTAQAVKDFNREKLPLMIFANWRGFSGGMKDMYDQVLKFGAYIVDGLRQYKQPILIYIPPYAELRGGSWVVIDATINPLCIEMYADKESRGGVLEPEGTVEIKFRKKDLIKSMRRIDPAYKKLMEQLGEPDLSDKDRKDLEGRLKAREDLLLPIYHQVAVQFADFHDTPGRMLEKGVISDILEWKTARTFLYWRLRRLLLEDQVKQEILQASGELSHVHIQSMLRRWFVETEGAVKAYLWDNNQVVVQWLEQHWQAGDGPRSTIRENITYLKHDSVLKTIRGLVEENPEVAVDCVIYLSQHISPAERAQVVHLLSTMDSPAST
readout: IC50

>  <molecule>
COc1ccc(F)cc1[C@@H](Cn1c(=O)n(C(C)(C)C(=O)NC(C)C)c(=O)c2c(C)c(-n3nccn3)sc21)OC(C)=O

>  <readout>
IC50

>  <experimental_result>
5 to 10 nM

$$$$
>  <molecule>
COc1ccc(F)cc1[C@H](Cn1c(=O)n([C@@H](C)C(=O)N(C)C(C)C)c(=O)c2c(C)c(-n3nccn3)sc21)OCC(C)(C)O

>  <readout>
IC50

>  <experimental_result>
10 to 40 nM

$$$$
>  <molecule>
CCc1ccc(F)cc1[C@H](Cn1c(=O)n(C(C)(C)C(=O)NC(C)C)c(=O)c2c(C)c(-n3nccn3)sc21)OCC(C)(C)C#N

>  <readout>
IC50

>  <experimental_result>
5 to 10 nM

$$$$
>  <molecule>
COCCOc1ccc(F)cc1[C@H](Cn1c(=O)n(C(C)(C)C(=O)NC(C)C)c(=O)c2c(C)c(-n3nccn3)sc21)OC1CCOCC1

>  <readout>
IC50

>  <experimental_result>
5 to 10 nM

$$$$
>  <molecule>
COCCO[C@@H](Cn1c(=O)n(C(C)(C)C(=O)NC2CCC2)c(=O)c2c(C)c(-n3nccn3)sc21)c1cc(F)ccc1OC [Compound I-102]

>  <readout>
IC50

>  <experimental_result>
1 to 5 nM

$$$$
>  <molecule>
COCCCO[C@@H](Cn1c(=O)n(C(C)C(=O)NC(C)C)c(=O)c2c(C)c(-n3nccn3)sc21)c1cc(F)ccc1OC (stereo partly shown)

>  <readout>
IC50

>  <experimental_result>
10 to 40 nM

$$$$
>  <molecule>
COc1ccc(F)cc1[C@H](Cn1c(=O)n(C(C)(C)C(=O)NC(C)C)c(=O)c2c(C)c(-n3nccn3)sc21)O[C@H]1C[C@@H](O)C1

>  <readout>
IC50

>  <experimental_result>
10 to 40 nM

$$$$

* * *

target: fungal (fACC2) (UniProt Q00955); settings: read-out: fACC2 (in vitro ACC2 Inhibition Assay, IC50); Table 2b, additional results; ADP-Glo, 5 nM ACC2, 20 μM ATP, 20 μM acetyl-CoA
Sequence (Q00955 whole entry): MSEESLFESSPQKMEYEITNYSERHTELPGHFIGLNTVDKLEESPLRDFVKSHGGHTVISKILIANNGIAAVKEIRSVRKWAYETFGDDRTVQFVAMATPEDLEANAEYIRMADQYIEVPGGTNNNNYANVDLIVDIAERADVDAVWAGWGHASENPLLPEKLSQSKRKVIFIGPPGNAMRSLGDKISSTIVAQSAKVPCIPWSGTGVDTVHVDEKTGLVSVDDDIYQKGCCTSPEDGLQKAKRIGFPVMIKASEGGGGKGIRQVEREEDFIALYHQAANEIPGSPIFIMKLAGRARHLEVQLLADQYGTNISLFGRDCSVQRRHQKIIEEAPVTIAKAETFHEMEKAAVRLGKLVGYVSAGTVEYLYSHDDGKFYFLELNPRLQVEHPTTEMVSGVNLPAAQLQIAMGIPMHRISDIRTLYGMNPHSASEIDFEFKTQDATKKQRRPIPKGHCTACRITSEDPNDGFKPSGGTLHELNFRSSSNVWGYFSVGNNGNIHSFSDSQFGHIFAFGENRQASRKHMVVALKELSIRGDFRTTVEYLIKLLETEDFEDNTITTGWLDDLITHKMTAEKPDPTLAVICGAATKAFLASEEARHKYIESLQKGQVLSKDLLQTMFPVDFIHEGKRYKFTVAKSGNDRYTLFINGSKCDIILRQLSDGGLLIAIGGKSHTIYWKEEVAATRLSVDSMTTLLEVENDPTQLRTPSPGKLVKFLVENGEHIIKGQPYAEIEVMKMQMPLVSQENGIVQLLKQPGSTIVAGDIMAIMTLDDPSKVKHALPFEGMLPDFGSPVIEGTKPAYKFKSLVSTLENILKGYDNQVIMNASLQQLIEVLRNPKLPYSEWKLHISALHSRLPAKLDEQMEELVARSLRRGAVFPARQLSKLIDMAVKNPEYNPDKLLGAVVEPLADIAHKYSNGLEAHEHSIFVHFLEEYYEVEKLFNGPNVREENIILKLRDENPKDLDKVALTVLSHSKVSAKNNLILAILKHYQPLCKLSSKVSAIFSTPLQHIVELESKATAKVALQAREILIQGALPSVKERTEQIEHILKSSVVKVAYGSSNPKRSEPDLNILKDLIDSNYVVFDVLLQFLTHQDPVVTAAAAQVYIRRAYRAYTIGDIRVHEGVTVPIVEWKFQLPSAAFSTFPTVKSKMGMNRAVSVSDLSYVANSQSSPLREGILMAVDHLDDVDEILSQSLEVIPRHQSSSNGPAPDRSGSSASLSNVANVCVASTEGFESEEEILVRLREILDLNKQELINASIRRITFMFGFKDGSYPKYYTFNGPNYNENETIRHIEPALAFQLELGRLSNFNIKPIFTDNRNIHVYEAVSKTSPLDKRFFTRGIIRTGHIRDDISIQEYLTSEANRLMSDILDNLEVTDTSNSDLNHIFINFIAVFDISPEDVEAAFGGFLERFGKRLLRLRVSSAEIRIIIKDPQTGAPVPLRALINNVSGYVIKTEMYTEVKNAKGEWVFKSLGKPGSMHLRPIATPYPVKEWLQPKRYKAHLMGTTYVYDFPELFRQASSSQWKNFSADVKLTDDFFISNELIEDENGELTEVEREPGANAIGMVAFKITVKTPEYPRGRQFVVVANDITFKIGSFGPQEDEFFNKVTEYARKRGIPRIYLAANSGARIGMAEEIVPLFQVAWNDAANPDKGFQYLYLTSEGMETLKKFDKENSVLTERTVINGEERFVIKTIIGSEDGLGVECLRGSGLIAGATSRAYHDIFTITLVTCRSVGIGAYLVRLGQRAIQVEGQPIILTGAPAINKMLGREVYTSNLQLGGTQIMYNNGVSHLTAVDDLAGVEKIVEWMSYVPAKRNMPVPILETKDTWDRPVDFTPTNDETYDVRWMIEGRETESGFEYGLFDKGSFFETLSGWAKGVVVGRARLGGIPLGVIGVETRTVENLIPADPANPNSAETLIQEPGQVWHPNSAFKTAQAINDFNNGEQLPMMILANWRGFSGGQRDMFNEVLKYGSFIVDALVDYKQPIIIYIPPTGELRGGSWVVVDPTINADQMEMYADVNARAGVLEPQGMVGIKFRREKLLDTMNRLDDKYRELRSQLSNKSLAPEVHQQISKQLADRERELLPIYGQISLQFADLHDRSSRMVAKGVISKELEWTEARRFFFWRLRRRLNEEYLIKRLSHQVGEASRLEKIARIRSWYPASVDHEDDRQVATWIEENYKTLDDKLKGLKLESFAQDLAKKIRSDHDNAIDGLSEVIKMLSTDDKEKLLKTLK

>  <compound>
CCc1ccccc1[C@H](Cn1c(=O)n(C(C)(C)C(=O)NC(C)C)c(=O)c2c(C)c(-n3nccn3)sc21)O[C@H]1CC[C@@H](C#N)CC1

>  <IC50>
1 to 5 nM

$$$$
>  <compound>
COCCO[C@@H](Cn1c(=O)n(CC(=O)NC(C)C)c(=O)c2c(C)c(-n3nccn3)sc21)c1cc(F)ccc1OC

>  <IC50>
1 to 5 nM

$$$$
>  <compound>
Cc1c(-n2nccn2)sc2c1c(=O)n(C(C)(C)C(=O)N1CCCC1)c(=O)n2C[C@H](OC1CCOCC1)c1cc(F)ccc1OCCO

>  <IC50>
0.3 to 1 nM

$$$$
>  <compound>
COc1ccc(F)cc1[C@@H](O)Cn1c(=O)n([C@@H](C)C(=O)N(C)C(C)C)c(=O)c2c(C)c(-n3nccn3)sc21

>  <IC50>
1 to 5 nM

$$$$
>  <compound>
Cc1c(-n2nccn2)sc2c1c(=O)n(C(C)(C)C(=O)NC(C)C)c(=O)n2C[C@H](OCCC#N)c1cc(F)ccc1OCc1ccccc1

>  <IC50>
0.3 to 1 nM

$$$$
>  <compound>
COc1ccccc1[C@H](Cn1c(=O)n(C(C)(C)C(=O)NC(C)C)c(=O)c2c(C)c(-n3nccn3)sc21)O[C@H]1CC[C@@H](O)CC1

>  <IC50>
0.3 to 1 nM

$$$$
>  <compound>
CNC(=O)C(C)(C)n1c(=O)c2c(C)c(-n3nccn3)sc2n(C[C@H](OCCC#N)c2ccccc2OC)c1=O

>  <IC50>
1 to 5 nM

$$$$
>  <compound>
C=CCN(C)C(=O)C(C)(C)n1c(=O)c2c(C)c(-n3nccn3)sc2n(C[C@H](OC(C)C)c2cc(F)ccc2OC)c1=O

>  <IC50>
1 to 5 nM

$$$$
>  <compound>
CCNC(=O)C(C)(C)n1c(=O)c2c(C)c(-n3nccn3)sc2n(C[C@H](O)c2cc(F)ccc2OC)c1=O

>  <IC50>
0.3 to 1 nM

$$$$
>  <compound>
COc1ccc(F)cc1[C@H](Cn1c(=O)n([C@H](C)C(=O)NC2CCC2)c(=O)c2c(C)c(-n3nccn3)sc21)OCCO

>  <IC50>
0.3 to 1 nM

$$$$
>  <compound>
COc1ccc(F)cc1[C@H](Cn1c(=O)n(C(C)(C)C(=O)NC(C)C)c(=O)c2c(C)c(-n3nccn3)sc21)OCCC(O)CO (stereo partly drawn)

>  <IC50>
1 to 5 nM

$$$$
>  <compound>
COc1ccc(F)cc1[C@H](Cn1c(=O)n(C(C)(C)C(=O)NCC(C)C)c(=O)c2c(C)c(-n3nccn3)sc21)OC1CCOCC1

>  <IC50>
1 to 5 nM

$$$$
>  <compound>
COc1ccc(F)cc1[C@H](Cn1c(=O)n(C(C)(C)C(=O)NC(C)C)c(=O)c2c(C)c(-n3nccn3)sc21)OC(C)=O

>  <IC50>
5 to 10 nM

$$$$
>  <compound>
COc1ccc(F)cc1[C@H](Cn1c(=O)n([C@@H](C)C(=O)NC(C)C)c(=O)c2c(C)c(-n3nccn3)sc21)OCC(C)(C)O

>  <IC50>
0.3 to 1 nM

$$$$
>  <compound>
COc1ccc(F)cc1[C@H](Cn1c(=O)n(C(C)(C)C(=O)NC(C)C)c(=O)c2c(C)c(-n3nccn3)sc21)OC(C)C

>  <IC50>
1 to 5 nM

$$$$
>  <compound>
Cc1c(-n2nccn2)sc2c1c(=O)n(C(C)(C)C(=O)NC(C)C)c(=O)n2C[C@H](OC1CCOCC1)c1cc(F)ccc1OCC1COC1

>  <IC50>
1 to 5 nM

$$$$
>  <compound>
CCNC(=O)[C@H](C)n1c(=O)c2c(C)c(-n3nccn3)sc2n(C[C@H](OCCC#N)c2cc(F)ccc2OC)c1=O

>  <IC50>
0.3 to 1 nM

$$$$
>  <compound>
COc1ccc(F)cc1[C@H](Cn1c(=O)n(C(C)(C)C(=O)O)c(=O)c2c(C)c(-n3nccn3)sc21)O[C@H]1CC[C@H](C#N)CC1

>  <IC50>
1 to 5 nM

$$$$
>  <compound>
COc1ccc(F)cc1[C@](C)(Cn1c(=O)n(C(C)(C)C(=O)NC(C)C)c(=O)c2c(C)c(-n3nccn3)sc21)OCCC#N

>  <IC50>
1 to 5 nM

$$$$
>  <compound>
COc1ccc(F)cc1[C@@H](Cn1c(=O)n(C(C)(C)C(=O)NC(C)C)c(=O)c2c(C)c(-n3nccn3)sc21)OC(=O)C(C)(C)O

>  <IC50>
0.3 to 1 nM

$$$$
>  <compound>
Cc1c(-n2nccn2)sc2c1c(=O)n(C(C)(C)C(=O)NC(C)C)c(=O)n2CCc1cc(F)ccc1OCc1ccccc1

>  <IC50>
1 to 5 nM

$$$$
>  <compound>
COc1ccc(F)cc1[C@H](Cn1c(=O)n(C(C)(C)C(N)=O)c(=O)c2c(C)c(-n3nccn3)sc21)OCC(C)(C)C#N

>  <IC50>
1 to 5 nM

$$$$
>  <compound>
COc1ccc(F)cc1[C@H](Cn1c(=O)n(C(C)(C)C(=O)NC(C)C)c(=O)c2c(C)c(-n3nccn3)sc21)OC[C@@H](C)C(=O)O

>  <IC50>
0.3 to 1 nM

$$$$
>  <compound>
COCCO[C@@H](Cn1c(=O)n(C(C)(C)C(=O)OC2CCC2)c(=O)c2c(C)c(-n3nccn3)sc21)c1cc(F)ccc1OC

>  <IC50>
1 to 5 nM

$$$$

* * *

The entries below are paired with their reported MIC.
Tested on: C. krusei
Experiment: Antifungal Activity Assay (broth microtiter MIC), C. krusei
Format: cell-based, Candida krusei
Conditions: Pichia kudriavzevii, ATCC6258, 48 h, Table 3b (additional results); ATCC 6258; 3 replicates; MIC recorded at 48 h; read-out: MIC, C. krusei ATCC 6258
Description: Compounds of the present invention were evaluated in an Antifungal Activity Assay. An exemplary procedure for the assay, which measures the susceptibility of various Candida species to antifungal compounds, follows. […] All species were grown from frozen stock by directly plating on to freshly prepared Sabouraud Dextrose agar (BD, Difco) and incubated overnight in ambient air at 35° C. for 24 h. […] The concentration of the suspension was determined using pre-determined standard curves. […]
readout: MIC

>  <mol_smiles>
COc1ccccc1[C@H](Cn1c(=O)n(C(C)(C)C(=O)O)c(=O)c2c(C)c(-n3nccn3)sc21)OC1CCOCC1

>  <experimental_result>
2.01 to 4 µg/mL

$$$$
>  <mol_smiles>
COc1ccc(F)cc1[C@H](Cn1c(=O)n(C(C)(C)C(=O)O)c(=O)c2c(C)c(-n3nccn3)sc21)O[C@H]1CC[C@H](C#N)CC1

>  <experimental_result>
1.01 to 2 µg/mL

$$$$
>  <mol_smiles>
Cc1c(-n2nccn2)sc2c1c(=O)n(C(C)(C)C(=O)NC(C)C)c(=O)n2C[C@H](OCCO)c1cc(F)ccc1O

>  <experimental_result>
1.01 to 2 µg/mL

$$$$
>  <mol_smiles>
CCNC(=O)C(C)(C)n1c(=O)c2c(C)c(-n3nccn3)sc2n(C[C@@H](O)c2cc(F)ccc2OC)c1=O

>  <experimental_result>
2.01 to 4 µg/mL

$$$$
>  <mol_smiles>
COc1ccc(F)cc1[C@H](Cn1c(=O)n([C@H](C)C(N)=O)c(=O)c2c(C)c(-n3nccn3)sc21)OCC(C)(C)O

>  <experimental_result>
> 4.01 µg/mL

$$$$
>  <mol_smiles>
Cc1c(-n2nccn2)sc2c1c(=O)n(C(C)(C)C(=O)NC(C)C)c(=O)n2C[C@H](OC(C)C)c1cc(F)ccc1OCCO

>  <experimental_result>
0.06 to 0.249 µg/mL

$$$$

Data provenance is patent US10800791B2.
